# STUDY SYSTEM: Ras-related C3 botulinum toxin substrate 1 (Mus musculus, UniProt P63001)
Exercise: state measured Ki for each of the compounds provided.
Numbers only, in nM.

Example compounds with recorded Ki:
O=C1Nc2c(F)cccc2C1=C1Nc2ccccc2C1=O ... 3230
O=C1Nc2ccc(Br)cc2C1=C1Nc2ccccc2C1=O ... 1510

Respectfully, I request Ki for each entry included below.
1. O=C1NC(=S)N/C1=C1\C(=O)Nc2ccccc21
2. O=C1NC(=O)/C(=C2/C(=O)Nc3ccccc32)N1

a:
160
250
